Each entry below carries its reported Kd.
biological target: Casein kinase I isoform gamma-1 (Homo sapiens); note: in the data inactive means no Kd found up to 30 µM
Sequence (Q9HCP0 whole entry, canonical isoform): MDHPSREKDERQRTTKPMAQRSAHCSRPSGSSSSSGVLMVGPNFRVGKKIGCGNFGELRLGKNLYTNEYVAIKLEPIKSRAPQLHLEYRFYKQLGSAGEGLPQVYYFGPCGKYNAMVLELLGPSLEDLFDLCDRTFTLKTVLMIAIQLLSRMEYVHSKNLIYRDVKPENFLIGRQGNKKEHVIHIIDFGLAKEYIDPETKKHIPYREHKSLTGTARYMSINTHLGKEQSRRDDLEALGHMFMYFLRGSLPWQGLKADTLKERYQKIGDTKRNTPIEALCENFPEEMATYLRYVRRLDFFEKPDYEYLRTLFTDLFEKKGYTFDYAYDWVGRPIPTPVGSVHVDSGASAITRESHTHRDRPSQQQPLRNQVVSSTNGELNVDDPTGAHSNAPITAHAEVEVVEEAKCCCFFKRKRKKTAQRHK
Activity calls are given as the source filed them.

Known Kd results, listed for orientation:
| molecule | Kd |
| --- | --- |
| CN1CCC(COc2cnc(-c3cccc(Cn4nc(-c5cccc(C#N)c5)ccc4=O)c3)nc2)CC1 [TEPOTINIB] | > 30 µM (inactive) |
| C[C@@H]1CN(Cc2ccc(F)cc2)[C@@H](C)CN1C(=O)c1cc2c(C(=O)C(=O)N(C)C)cn(C)c2cc1Cl [TALMAPIMOD] | > 30 µM (inactive) |
| COc1cc2nccc(Oc3ccc(NC(=O)NC4CC4)c(Cl)c3)c2cc1C(N)=O [LENVATINIB] | > 30 µM (inactive) |
| Cn1cc(-c2ccc(F)c(C(F)(F)F)c2)nc1C1CCN(c2ncnc3[nH]ncc23)CC1 [LY-2584702] | > 30 µM (inactive) |
| Cc1c(F)cc(C(=O)NC2CC2)cc1-c1ccc(C(=O)NCC(C)(C)C)cn1 [LOSMAPIMOD] | > 30 µM (inactive) |
| CC(=O)Nc1cccc(-n2c(=O)n(C3CC3)c(=O)c3c(Nc4ccc(I)cc4F)n(C)c(=O)c(C)c32)c1 [TRAMETINIB] | > 30 µM (inactive) |
| C[C@@H](c1ccc2nccn2c1)n1nnc2ncc(-c3cnn(C)c3)nc21 [SAVOLITINIB] | > 30 µM (inactive) |
| Cn1ncc(Cl)c1-c1cc(C(=O)N[C@H](CN)Cc2cccc(F)c2)sc1Cl [AFURESERTIB] | > 30 µM (inactive) |
| CC[C@@H]1C(=O)N(C)c2cnc(Nc3ccc(C(=O)N[C@H]4CC[C@H](N5CCN(CC6CC6)CC5)CC4)cc3OC)nc2N1C(C)C [VOLASERTIB] | > 30 µM (inactive) |
| COc1cc(N2CCC(N3CCN(C)CC3)CC2)ccc1Nc1ncnc(Nc2ccccc2S(=O)(=O)C(C)C)n1 [ASP-3026] | > 30 µM (inactive) |

Measured Kd (Casein kinase I isoform gamma-1 (Homo sapiens)), entry OCCn1cc(-c2cnc3nnn(Cc4ccc5ncccc5c4)c3n2)cn1 [PF-04217903] : > 30 µM (inactive)

Entry COc1cc(CCc2cc(NC(=O)c3ccc(N4C[C@@H](C)N[C@@H](C)C4)cc3)n[nH]2)cc(OC)c1 [AZD-4547] ; assay system Casein kinase I isoform gamma-1 (Homo sapiens); Kd recorded at > 30 µM (inactive)

Form field Kd for item Cn1cc(-c2ccc3nnc(C(F)(F)c4ccc5ncccc5c4)n3n2)cn1 [JNJ-38877605] on Casein kinase I isoform gamma-1 (Homo sapiens): > 30 µM (inactive)

The molecule CC[C@H](Nc1ncnc2[nH]cnc12)c1nc2cccc(F)c2c(=O)n1-c1ccccc1 [IDELALISIB] on Casein kinase I isoform gamma-1 (Homo sapiens): Kd was > 30 µM (inactive)

Test item CNC(=O)c1ccc(C)c(-n2c(C)cc(OCc3ccc(F)cc3F)c(Br)c2=O)c1 [PH-797804] ; Casein kinase I isoform gamma-1 (Homo sapiens); reported Kd was > 30 µM (inactive)

GET /values?item= `CN1CC[C@@H](c2c(O)cc(O)c3c(=O)cc(-c4ccccc4Cl)oc23)[C@@H]1CO` &system= Casein kinase I isoform gamma-1 (Homo sapiens) returns Kd: > 30 µM (inactive)

###

Protein target, amino acids: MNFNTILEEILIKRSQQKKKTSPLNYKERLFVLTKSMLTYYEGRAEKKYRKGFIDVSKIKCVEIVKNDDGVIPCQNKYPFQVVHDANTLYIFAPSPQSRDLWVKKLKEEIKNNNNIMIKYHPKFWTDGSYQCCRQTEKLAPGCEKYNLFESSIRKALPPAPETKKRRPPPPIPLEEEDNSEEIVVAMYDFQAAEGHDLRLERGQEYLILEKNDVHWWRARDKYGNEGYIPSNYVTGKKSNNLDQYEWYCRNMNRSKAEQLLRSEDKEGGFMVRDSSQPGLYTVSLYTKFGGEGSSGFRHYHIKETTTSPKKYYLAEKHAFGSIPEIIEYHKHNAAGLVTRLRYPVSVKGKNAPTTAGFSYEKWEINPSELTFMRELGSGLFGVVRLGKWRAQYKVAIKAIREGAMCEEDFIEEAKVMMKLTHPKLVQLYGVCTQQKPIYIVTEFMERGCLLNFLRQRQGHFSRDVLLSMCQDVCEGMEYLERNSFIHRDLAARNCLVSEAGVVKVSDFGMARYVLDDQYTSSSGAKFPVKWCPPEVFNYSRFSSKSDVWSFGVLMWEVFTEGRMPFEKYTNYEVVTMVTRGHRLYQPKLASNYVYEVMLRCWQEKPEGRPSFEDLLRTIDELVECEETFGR
Activity calls are given as the source filed them.
The reply should be one of these categories: active, inactive

Here are 2 molecules together with their reported answers.
| molecule | labelValue |
| --- | --- |
| CN1CCC(CNc2ccc3ncc(-c4cccc(OC(F)(F)F)c4)n3n2)CC1 [SGI-1776] | inactive |
| O=C(Nc1ccc(-c2ccnc(Nc3ccc(N4CCOCC4)cc3)n2)cc1)C1CCCN1 (stereo unspecified) [XL-019] | inactive |

Request: Field: outcome | Entry: C[C@@H](c1ccc2nccn2c1)n1nnc2ncc(-c3cnn(C)c3)nc21 [SAVOLITINIB]
Result: inactive

Request: Please state the recorded outcome for this molecule: `Cc1ccc(S(=O)(=O)Nc2nc3ccccc3nc2Nc2ccc3nsnc3c2)cc1`
Result: inactive

Request: Dear all, I need the recorded test outcome for CC[C@@H]1C(=O)N(C)c2cnc(Nc3ccc(C(=O)N[C@H]4CC[C@H](N5CCN(CC6CC6)CC5)CC4)cc3OC)nc2N1C(C)C [VOLASERTIB] , thank you.
Result: inactive

Request: Look up the recorded call for Cc1ccc(NC(=O)c2ccc(CN3CC[C@H](N(C)C)C3)c(C(F)(F)F)c2)cc1Nc1nccc(-c2cncnc2)n1 [BAFETINIB] in this test.
Result: inactive

Request: Answer briefly: the call reported for Cc1cc(Nc2cc(N3CCN(C)CC3)nc(/C=C/c3ccccc3)n2)n[nH]1 [ENMD-2076] in this assay.
Result: inactive

###

# maps each entry to its Kd
molecular target: Insulin-like growth factor 1 receptor (Homo sapiens, UniProt P08069); note: in the data inactive means no Kd found up to 30 µM
Sequence (P08069 31-736 limits assumed): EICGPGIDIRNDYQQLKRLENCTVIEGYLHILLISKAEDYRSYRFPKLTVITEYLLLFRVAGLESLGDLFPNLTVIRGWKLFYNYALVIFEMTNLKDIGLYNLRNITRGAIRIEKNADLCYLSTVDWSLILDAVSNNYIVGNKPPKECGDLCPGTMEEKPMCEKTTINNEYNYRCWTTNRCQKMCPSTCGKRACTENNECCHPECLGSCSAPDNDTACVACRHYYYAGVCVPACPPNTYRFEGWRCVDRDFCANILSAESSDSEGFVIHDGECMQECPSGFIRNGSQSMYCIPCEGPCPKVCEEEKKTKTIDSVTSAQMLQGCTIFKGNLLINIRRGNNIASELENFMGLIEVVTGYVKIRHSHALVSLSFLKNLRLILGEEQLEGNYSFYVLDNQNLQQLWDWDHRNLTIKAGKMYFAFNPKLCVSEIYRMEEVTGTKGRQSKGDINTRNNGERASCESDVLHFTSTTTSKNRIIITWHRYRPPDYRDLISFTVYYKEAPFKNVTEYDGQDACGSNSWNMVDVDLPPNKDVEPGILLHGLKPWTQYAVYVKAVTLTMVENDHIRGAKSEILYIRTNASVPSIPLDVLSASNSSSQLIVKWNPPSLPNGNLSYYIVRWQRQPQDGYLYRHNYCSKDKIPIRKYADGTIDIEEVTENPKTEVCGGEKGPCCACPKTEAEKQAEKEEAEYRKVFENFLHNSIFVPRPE
Sequence (P08069 741-1367 limits assumed): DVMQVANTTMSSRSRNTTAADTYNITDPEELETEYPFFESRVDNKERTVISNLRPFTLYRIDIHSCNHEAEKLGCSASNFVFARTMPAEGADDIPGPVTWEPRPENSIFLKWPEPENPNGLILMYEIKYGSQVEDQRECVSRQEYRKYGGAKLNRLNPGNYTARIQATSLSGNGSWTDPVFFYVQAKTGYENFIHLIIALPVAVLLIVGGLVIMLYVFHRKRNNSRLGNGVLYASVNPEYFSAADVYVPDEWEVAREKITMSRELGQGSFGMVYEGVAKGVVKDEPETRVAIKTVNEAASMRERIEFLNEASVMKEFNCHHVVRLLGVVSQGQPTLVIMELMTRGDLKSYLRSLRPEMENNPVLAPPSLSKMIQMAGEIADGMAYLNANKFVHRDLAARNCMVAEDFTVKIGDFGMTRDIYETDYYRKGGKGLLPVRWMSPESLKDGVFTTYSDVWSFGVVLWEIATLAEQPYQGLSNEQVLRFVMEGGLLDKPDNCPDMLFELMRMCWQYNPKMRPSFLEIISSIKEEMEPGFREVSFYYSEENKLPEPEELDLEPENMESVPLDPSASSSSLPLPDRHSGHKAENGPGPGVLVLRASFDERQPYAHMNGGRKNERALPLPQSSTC
Active and inactive are the calls of the source.

Solved cases (5 shown):
| molecule | target | Kd |
| --- | --- | --- |
| CN(C)C(=O)c1cc2cnc(Nc3ccc(N4CCNCC4)cn3)nc2n1C1CCCC1 | Insulin-like growth factor 1 receptor (Homo sapiens, UniProt P08069) | > 30 µM (inactive) |
| CNC(=O)CN1CCC(Oc2cc3c(Nc4cccc(Cl)c4F)ncnc3cc2OC)CC1 | Insulin-like growth factor 1 receptor (Homo sapiens, UniProt P08069) | > 30 µM (inactive) |
| CCN1CCN(Cc2ccc(-c3cc4c(N[C@H](C)c5ccccc5)ncnc4[nH]3)cc2)CC1 | Insulin-like growth factor 1 receptor (Homo sapiens, UniProt P08069) | > 30 µM (inactive) |
| Cc1cc([C@@H](C)Nc2ccccc2C(=O)O)c2nc(N3CCOCC3)cc(=O)n2c1 | Insulin-like growth factor 1 receptor (Homo sapiens, UniProt P08069) | > 30 µM (inactive) |
| C1=C/COCc2cc(ccc2OCCN2CCCC2)Nc2nccc(n2)-c2cccc(c2)COC/1 | Insulin-like growth factor 1 receptor (Homo sapiens, UniProt P08069) | > 30 µM (inactive) |

Kd reading for `Cc1ccc(NC(=O)c2ccc(CN3CC[C@H](N(C)C)C3)c(C(F)(F)F)c2)cc1Nc1nccc(-c2cncnc2)n1` : > 30 µM (inactive)

Field Kd (entry `Cc1ccc(-n2nc(C(C)(C)C)cc2NC(=O)NCc2cc(F)ccc2Oc2ccc3c(cnn3CCO)c2)cc1` ) reads > 30 µM (inactive)

Lab note: measured Kd of Cc1cc2c(F)c(Oc3ncnn4cc(OC[C@@H](C)OC(=O)[C@H](C)N)c(C)c34)ccc2[nH]1 [BRIVANIB ALANINATE] was > 30 µM (inactive)

###

molecular target: Insulin receptor (Homo sapiens); note: in the data inactive means no Kd found up to 30 µM
Sequence (P06213 28-758 limits assumed): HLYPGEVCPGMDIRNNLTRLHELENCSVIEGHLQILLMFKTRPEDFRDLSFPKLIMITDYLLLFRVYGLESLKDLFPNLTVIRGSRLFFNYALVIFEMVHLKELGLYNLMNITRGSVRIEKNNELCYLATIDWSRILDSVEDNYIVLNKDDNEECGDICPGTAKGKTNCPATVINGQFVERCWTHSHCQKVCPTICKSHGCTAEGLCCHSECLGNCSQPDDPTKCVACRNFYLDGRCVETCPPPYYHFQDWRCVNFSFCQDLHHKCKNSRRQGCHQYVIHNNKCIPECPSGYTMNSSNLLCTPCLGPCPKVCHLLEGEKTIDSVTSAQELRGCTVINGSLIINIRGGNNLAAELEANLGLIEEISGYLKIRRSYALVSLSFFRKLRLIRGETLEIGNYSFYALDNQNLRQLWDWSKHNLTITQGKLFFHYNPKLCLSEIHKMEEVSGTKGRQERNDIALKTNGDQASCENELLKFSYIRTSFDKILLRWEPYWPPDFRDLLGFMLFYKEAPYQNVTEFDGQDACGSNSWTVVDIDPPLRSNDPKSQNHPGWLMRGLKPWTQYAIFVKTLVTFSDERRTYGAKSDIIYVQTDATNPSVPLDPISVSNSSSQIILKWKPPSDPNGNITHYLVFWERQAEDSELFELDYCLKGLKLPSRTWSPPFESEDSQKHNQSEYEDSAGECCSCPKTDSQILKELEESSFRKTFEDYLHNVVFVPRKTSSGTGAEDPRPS
Sequence (P06213 763-1382 limits assumed): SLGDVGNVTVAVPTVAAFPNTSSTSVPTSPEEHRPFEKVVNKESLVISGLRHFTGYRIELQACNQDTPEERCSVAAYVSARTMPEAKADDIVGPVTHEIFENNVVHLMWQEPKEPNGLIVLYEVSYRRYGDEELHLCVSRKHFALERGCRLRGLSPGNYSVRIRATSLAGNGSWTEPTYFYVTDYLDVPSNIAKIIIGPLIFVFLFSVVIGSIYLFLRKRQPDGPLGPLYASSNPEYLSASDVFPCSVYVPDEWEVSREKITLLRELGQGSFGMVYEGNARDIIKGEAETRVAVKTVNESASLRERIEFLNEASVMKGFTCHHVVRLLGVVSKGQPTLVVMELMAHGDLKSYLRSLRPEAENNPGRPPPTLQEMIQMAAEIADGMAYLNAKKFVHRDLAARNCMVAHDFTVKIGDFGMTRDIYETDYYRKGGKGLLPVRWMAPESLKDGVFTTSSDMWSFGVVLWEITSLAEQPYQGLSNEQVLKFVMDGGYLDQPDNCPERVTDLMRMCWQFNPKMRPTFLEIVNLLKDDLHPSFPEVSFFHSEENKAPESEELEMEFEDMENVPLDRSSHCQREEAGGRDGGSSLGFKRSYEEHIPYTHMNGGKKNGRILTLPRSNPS
The source made the active and inactive calls.
One label from this list, please: active, inactive

Known results for compounds:
| compound | labelValue |
| --- | --- |
| CN(C)C(=O)c1cc2cnc(Nc3ccc(N4CCNCC4)cn3)nc2n1C1CCCC1 | inactive |
| CO[C@H]1C[C@@H]2CC[C@@H](C)[C@@](O)(O2)C(=O)C(=O)N2CCCC[C@H]2C(=O)O[C@H]([C@H](C)C[C@@H]2CC[C@@H](OCCO)[C@H](OC)C2)CC(=O)[C@H](C)/C=C(\C)[C@@H](O)[C@@H](OC)C(=O)[C@H](C)C[C@H](C)/C=C/C=C/C=C/1C | inactive |
| CNC(=O)c1ccc(-c2cnc3ncc(Cc4ccc5ncccc5c4)n3n2)cc1F | inactive |
| CCS(=O)(=O)N1CC(CC#N)(n2cc(-c3ncnc4[nH]ccc34)cn2)C1 | inactive |
| CNC(=O)c1cc(Oc2ccc(NC(=O)Nc3ccc(Cl)c(C(F)(F)F)c3)c(F)c2)ccn1 | inactive |
| COc1cc(OC)c(/C=C/S(=O)(=O)Cc2ccc(OC)c(NCC(=O)O)c2)c(OC)c1 | inactive |
| C=CC(=O)N1CCC(Oc2cc3c(Nc4ccc(Cl)c(Cl)c4F)ncnc3cc2OC)CC1 | inactive |
| O=C(Nc1ccc(-c2ccnc(Nc3ccc(N4CCOCC4)cc3)n2)cc1)C1CCCN1 (stereo unspecified) | inactive |
| CC[C@H](Nc1ncnc2[nH]cnc12)c1nc2cccc(F)c2c(=O)n1-c1ccccc1 | inactive |
| CCCS(=O)(=O)Nc1ccc(F)c(C(=O)c2c[nH]c3ncc(-c4ccc(Cl)cc4)cc23)c1F | inactive |

Request: Assay result, entry `COC(=O)N[C@@H](C)CNc1nccc(-c2cn(C(C)C)nc2-c2cc(Cl)cc(NS(C)(=O)=O)c2F)n1` — outcome?
Result: inactive

Request: Outcome? `CNC(=O)c1ccc(C)c(-n2c(C)cc(OCc3ccc(F)cc3F)c(Br)c2=O)c1`
Result: inactive

Request: // param item: `N[C@@H]1CCCN(c2c(/C=C3\SC(=O)NC3=O)cccc2-c2ccccc2)C1` ; yields the recorded call
Result: inactive

Request: Entry `CC(C)Nc1cc(-c2c[nH]c(C(=O)N[C@H](CO)c3cccc(Cl)c3)c2)c(Cl)cn1` : call = ?
Result: inactive
